pIC50 values by entry
Target: PDK1 (Homo sapiens)
Construct: His6 (N)
Sequence (O15530 51-556 limits assumed): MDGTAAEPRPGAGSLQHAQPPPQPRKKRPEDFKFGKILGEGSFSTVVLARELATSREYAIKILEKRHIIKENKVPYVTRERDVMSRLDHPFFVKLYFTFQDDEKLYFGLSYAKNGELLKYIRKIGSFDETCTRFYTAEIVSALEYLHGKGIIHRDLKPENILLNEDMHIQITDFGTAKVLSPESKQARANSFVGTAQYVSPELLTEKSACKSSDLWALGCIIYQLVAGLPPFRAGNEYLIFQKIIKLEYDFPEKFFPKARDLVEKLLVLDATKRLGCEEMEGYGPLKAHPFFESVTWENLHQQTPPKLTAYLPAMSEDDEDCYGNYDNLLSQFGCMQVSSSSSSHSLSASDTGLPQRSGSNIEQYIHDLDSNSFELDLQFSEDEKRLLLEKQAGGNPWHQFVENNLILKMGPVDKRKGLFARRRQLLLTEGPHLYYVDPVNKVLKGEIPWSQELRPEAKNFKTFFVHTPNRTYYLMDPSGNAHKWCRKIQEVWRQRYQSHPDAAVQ
Experiment: Test for the inhibition of PDK1 (flashplate, 33P-ATP)
Conditions: His6-PDK1 (1-50) 3.4 nM, 4 μM ATP, 30° C., 60 min; read-out: IC50 [PDK1] biochemical
Description: The experimental batches are carried out in a flashplate system with 384 wells/microtitration plate. In each case, the PDK1 sample His6-PDK1 (1-50) (3.4 nM), the PDK1 substrate biotin-bA-bA-[…] […] The activity of the kinase is measured via the incorporated radioactivity in top count. […] The radioactivity (decompositions per minute) of the blank value (no use of test substance in the presence of staurosporin) is subtracted from all other radioactivity values. […]
pIC50: −log10 of the molar value.
Experimental Endpoint: pIC50

Compound	Test Result
Cn1cc(-c2cnc3[nH]cc(-c4nnc([C@@H](N)c5ccccc5)o4)c3c2)cn1 [A109]	6.00 to 9.30
Cn1cc(-c2cnc3[nH]cc(-c4nnc(C(O)c5cccc(Cl)c5)o4)c3c2)cn1 (stereo not drawn) [A59]	6.00 to 9.30
COC(C)(c1ccccc1)c1cc(-c2c[nH]c3ncc(-c4cnn(C)c4)cc23)nn1C (stereo not drawn) [A73]	5.00 to 6.00
Cn1cc(-c2cnc3[nH]cc(-c4nnc(C5(c6ccnc(O)c6)CC5)o4)c3c2)cn1 [A111]	6.00 to 9.30
Cn1cc(-c2cnc3[nH]cc(-c4cc(C(O)(c5ccccc5)C5CCOCC5)on4)c3c2)cn1 (stereo not drawn) [A103]	6.00 to 9.30
Cn1cc(-c2cnc3[nH]cc(-c4nnc(C5(c6ccccc6Cl)CC5)o4)c3c2)cn1 [A83]	6.00 to 9.30

---

IC50 values by entry
Target: PDK1 (Homo sapiens, UniProt O15530)
Construct: endogenous in cells; host or cells: PC3 cells
Sequence (O15530 1-556): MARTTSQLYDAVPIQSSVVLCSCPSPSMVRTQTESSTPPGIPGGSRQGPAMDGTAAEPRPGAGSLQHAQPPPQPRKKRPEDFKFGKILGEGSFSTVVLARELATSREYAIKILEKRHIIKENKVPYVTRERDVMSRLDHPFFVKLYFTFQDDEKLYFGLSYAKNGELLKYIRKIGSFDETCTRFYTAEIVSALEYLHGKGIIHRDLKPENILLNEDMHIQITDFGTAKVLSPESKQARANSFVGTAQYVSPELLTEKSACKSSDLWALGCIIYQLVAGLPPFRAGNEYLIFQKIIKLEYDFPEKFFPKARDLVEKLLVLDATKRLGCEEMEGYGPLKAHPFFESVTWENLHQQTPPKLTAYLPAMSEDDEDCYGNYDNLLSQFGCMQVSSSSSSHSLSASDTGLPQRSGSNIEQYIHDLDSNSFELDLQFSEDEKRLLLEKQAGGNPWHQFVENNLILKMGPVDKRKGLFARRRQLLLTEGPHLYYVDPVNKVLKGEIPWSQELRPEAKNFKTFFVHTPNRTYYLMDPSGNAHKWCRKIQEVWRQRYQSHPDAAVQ
Test: Cellular testing of PDK1 kinase inhibitors in PC3 cells (Luminex, phospho-T308-PKB)
Assay type: cell-based
Details: 30 min, serum-free

Compound	IC50
Cn1cc(-c2cnc3[nH]cc(-c4nnc(Cc5ccccc5)o4)c3c2)cn1 [A21]	1000 to 10000 nM
Cn1cc(-c2cnc3[nH]cc(-c4cc([C@](C)(O)c5ccccc5F)on4)c3c2)cn1 (single isomer, unassigned) [A55]	0.5 to 1000 nM
Cn1cc(-c2cnc3[nH]cc(-c4n[nH]c(Cc5ccccc5)n4)c3c2)cn1 [A17]	1000 to 10000 nM
Cn1cc(-c2cnc3[nH]cc(-c4noc(C(C)(O)c5cccc(F)c5F)n4)c3c2)cn1 (stereo not shown) [A52]	1000 to 10000 nM
Cn1cc(-c2cnc3[nH]cc(-c4nc(C(C)(O)c5ccccc5)no4)c3c2)cn1 (stereo not shown) [A67]	0.5 to 1000 nM
Cn1cc(-c2cnc3[nH]cc(-c4n[nH]c(C5(c6cccnc6)CC5)n4)c3c2)cn1 [A125]	1000 to 10000 nM
Cn1cc(-c2cnc3[nH]cc(-c4cc(C(C)(O)c5ccccc5)on4)c3c2)cn1 (stereo not shown) [A1]	0.5 to 1000 nM
Cc1sc(Cc2ccccc2)nc1-c1c[nH]c2ncc(-c3cnn(C)c3)cc12 [A3]	1000 to 10000 nM
Cn1cc(-c2cnc3[nH]cc(-c4cc(C(O)c5ccccc5)[nH]n4)c3c2)cn1 (stereo not shown) [A74]	0.5 to 1000 nM
Cn1cc(-c2cnc3[nH]cc(-c4nnc(C5(c6cccnc6)CCCC5)o4)c3c2)cn1 [A110]	1000 to 10000 nM

---

pIC50 values by entry
biological target: PDK1 (Homo sapiens, UniProt O15530); construct: His6 (N); test: Test for the inhibition of PDK1 (flashplate, 33P-ATP); conditions: His6-PDK1 (1-50) 3.4 nM, 4 μM ATP, 30° C., 60 min; read-out: IC50 [PDK1] biochemical
pIC50: −log10 of the molar value.
Experimental Endpoint: pIC50

Compound	Assayed Target	Test Result
Cn1cc(-c2cnc3[nH]cc(-c4cc(C(C)(O)c5ccccc5)n(CCO)n4)c3c2)cn1 (stereo not drawn)	PDK1 (Homo sapiens, UniProt O15530)	6.00 to 9.30
Cn1cc(-c2cnc3[nH]cc(-c4cc(CO)on4)c3c2)cn1	PDK1 (Homo sapiens, UniProt O15530)	6.00 to 9.30
Cn1cc(-c2cnc3[nH]cc(-c4nnc(Cc5ccccc5F)o4)c3c2)cn1	PDK1 (Homo sapiens, UniProt O15530)	6.00 to 9.30
Cn1cc(-c2cnc3[nH]cc(-c4n[nH]c(C(O)c5ccccc5Cl)n4)c3c2)cn1 (stereo not drawn)	PDK1 (Homo sapiens, UniProt O15530)	6.00 to 9.30
Cn1cc(-c2cnc3[nH]cc(-c4nnc(C(O)c5ccccc5)o4)c3c2)cn1 (stereo not drawn)	PDK1 (Homo sapiens, UniProt O15530)	6.00 to 9.30
Cn1cc(-c2cnc3[nH]cc(-c4cc(C(C)(O)c5ccccc5)n(C)n4)c3c2)cn1 (stereo not drawn)	PDK1 (Homo sapiens, UniProt O15530)	5.00 to 6.00
Cn1cc(-c2cnc3[nH]cc(-c4csc(Cc5ccccc5F)n4)c3c2)cn1	PDK1 (Homo sapiens, UniProt O15530)	5.00 to 6.00
Cn1cc(-c2cnc3[nH]cc(-c4nnc(C(C)(C)c5ccnnc5)o4)c3c2)cn1	PDK1 (Homo sapiens, UniProt O15530)	5.00 to 6.00
Cn1cc(-c2cnc3[nH]cc(-c4nnc(Cc5cccc(F)c5F)o4)c3c2)cn1	PDK1 (Homo sapiens, UniProt O15530)	6.00 to 9.30
Cn1cc(-c2cnc3[nH]cc(-c4cc(C(O)(c5ccccc5)C5CCOCC5)no4)c3c2)cn1 (stereo not drawn)	PDK1 (Homo sapiens, UniProt O15530)	6.00 to 9.30
Cn1cc(-c2cnc3[nH]cc(-c4n[nH]c(Cc5cccc(F)c5)n4)c3c2)cn1	PDK1 (Homo sapiens, UniProt O15530)	6.00 to 9.30
Cn1cc(-c2cnc3[nH]cc(-c4n[nH]c(Cc5ccccc5)n4)c3c2)cn1	PDK1 (Homo sapiens, UniProt O15530)	6.00 to 9.30
Cn1cc(-c2cnc3[nH]cc(-c4n[nH]c(C(O)c5ccccc5)n4)c3c2)cn1 (stereo not drawn)	PDK1 (Homo sapiens, UniProt O15530)	6.00 to 9.30
Cn1cc(-c2cnc3[nH]cc(-c4cc(C(C)(O)c5cccc(F)c5F)on4)c3c2)cn1 (stereo not drawn)	PDK1 (Homo sapiens, UniProt O15530)	6.00 to 9.30
Cn1cc(-c2cnc3[nH]cc(-c4cc(C(C)(O)c5ccc(=O)n(C)n5)on4)c3c2)cn1 (stereo not drawn)	PDK1 (Homo sapiens, UniProt O15530)	6.00 to 9.30
Cn1cc(-c2cnc3[nH]cc(-c4nnc(Cc5cccc(F)c5)o4)c3c2)cn1	PDK1 (Homo sapiens, UniProt O15530)	6.00 to 9.30
Cn1cc(-c2cnc3[nH]cc(-c4noc(Cc5cccc(F)c5)n4)c3c2)cn1	PDK1 (Homo sapiens, UniProt O15530)	5.00 to 6.00
Cn1cc(-c2cnc3[nH]cc(-c4noc(C(C)(O)c5cccc(F)c5F)n4)c3c2)cn1 (stereo not drawn)	PDK1 (Homo sapiens, UniProt O15530)	6.00 to 9.30

Just for reference, patent US20130245355A1 is where these values come from.
